species: Homo sapiens; test: Selectivity factor, ratio of IC50 for Bcl-xL (unknown origin) to Bcl2 (unknown origin)
observation-type: Ratio IC50

Previously resolved entries follow.
>>> experimental_result("CO[C@H]1OC2O[C@@]3(C)CC[C@H]4[C@H](C)CC[C@@H]([C@]1(C)CC(=O)N1CCN(c5ccc(C(=O)NS(=O)(=O)c6ccc(NCC7CCOCC7)c([N+](=O)[O-])c6)c(Oc6cnc7[nH]ccc7c6)c5)CC1)[C@@]24OO3 (some centres undefined)")
"> 28.8"
>>> experimental_result("C[C@H]1[C@@H](OCCN2CCN(c3ccc(C(=O)NS(=O)(=O)c4ccc(NCC5CCOCC5)c([N+](=O)[O-])c4)c(Oc4cnc5[nH]ccc5c4)c3)CC2)O[C@@H]2O[C@]3(C)O[C@]24[C@H]1CC[C@@H](C)[C@@H]4C[C@H]3O")
"> 31.3"
>>> experimental_result("C[C@@H]1CC[C@H]2[C@@H](C)C(OCCN3CCN(c4ccc(C(=O)NS(=O)(=O)c5ccc(NCC6CCOCC6)c([N+](=O)[O-])c5)c(Oc5cnc6[nH]ccc6c5)c4)C[C@H]3CO)O[C@@H]3O[C@@]4(C)CC[C@@H]1[C@]32OO4 (some centres undefined)")
14.9

Attention now turns to another entry.
### Prompt # return recorded Ratio IC50 for input C[C@@H]1CC[C@H]2[C@@H](C)C(OCCNC3CCN(c4ccc(C(=O)NS(=O)(=O)c5ccc(NCC6CCOCC6)c([N+](=O)[O-])c5)c(Oc5cnc6[nH]ccc6c5)c4)CC3)O[C@@H]3O[C@@]4(C)CC[C@@H]1[C@]32OO4 (some centres undefined)
### Response > 526

* * *

test system: RS4-11; experiment: Antiproliferative activity against human RS4:11 cells after 72 hrs by MTS assay; format: functional, cell-based; conditions: RS4-11, 72 h
observation-type: IC50

>>> experimental_result("C[C@H]1[C@@H](CC(=O)N2CCN(c3ccc(C(=O)NS(=O)(=O)c4ccc(NCC5CCOCC5)c([N+](=O)[O-])c4)c(Oc4cnc5[nH]ccc5c4)c3)CC2)O[C@@H]2O[C@]3(C)O[C@]24[C@H]1CC[C@@H](C)[C@@H]4C[C@H]3O")
"> 1000 nM"

Attention now turns to another entry.
### Prompt # return recorded IC50 for input C[C@H]1[C@@H](CC(=O)N2CCN(c3ccc(C(=O)NS(=O)(=O)c4ccc(NCC5CCOCC5)c([N+](=O)[O-])c4)c(Oc4cnc5[nH]ccc5c4)c3)CC2)O[C@@H]2O[C@@]3(C)CC[C@H]4[C@H](C)CC[C@@H]1[C@@]24O3
### Response > 1000 nM

* * *

biological target: UniProt:P10415
Sequence (P10415 whole entry): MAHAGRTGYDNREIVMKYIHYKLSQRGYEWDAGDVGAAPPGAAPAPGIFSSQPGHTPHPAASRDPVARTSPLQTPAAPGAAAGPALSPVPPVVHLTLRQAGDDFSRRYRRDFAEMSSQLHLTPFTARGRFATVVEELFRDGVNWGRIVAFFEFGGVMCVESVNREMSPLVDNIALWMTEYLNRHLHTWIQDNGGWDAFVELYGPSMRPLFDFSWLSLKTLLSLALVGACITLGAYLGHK
Note to self: use TRUE only for IC50 readings below 0.05 µM; a reading exactly at 0.05 µM still gets FALSE.

>>> assigned_class("C[C@H]1[C@H](N(C)CCN2CCN(c3ccc(C(=O)NS(=O)(=O)c4ccc(NCC5CCOCC5)c([N+](=O)[O-])c4)c(Oc4cnc5[nH]ccc5c4)c3)CC2)O[C@@H]2O[C@@]3(C)CC[C@H]4[C@H](C)CC[C@@H]1[C@@]24OO3")
"TRUE"
>>> assigned_class("C[C@H]1[C@@H](CCCN2CCN(c3ccc(C(=O)NS(=O)(=O)c4ccc(NCC5CCOCC5)c([N+](=O)[O-])c4)c(Oc4cnc5[nH]ccc5c4)c3)CC2)O[C@@H]2O[C@@]3(C)CC[C@H]4[C@H](C)CC[C@@H]1[C@@]24OO3")
"TRUE"
>>> assigned_class("C[C@@H]1CC[C@H]2[C@@](C)(O)[C@@H](OCCN3CCN(c4ccc(C(=O)NS(=O)(=O)c5ccc(NCC6CCOCC6)c([N+](=O)[O-])c5)c(Oc5cnc6[nH]ccc6c5)c4)CC3)O[C@@H]3O[C@@]4(C)CC[C@@H]1[C@]32OO4")
"FALSE"
>>> assigned_class("C[C@@H]1CC[C@H]2[C@@H](C)C(OCCN3CCN(c4ccc(C(=O)NS(=O)(=O)c5ccc(NCC6CCOCC6)c([N+](=O)[O-])c5)c(Oc5cnc6[nH]ccc6c5)c4)C[C@H]3CO)O[C@@H]3O[C@@]4(C)CC[C@@H]1[C@]32OO4 (stereo partly drawn)")
"FALSE"

### Prompt Report whether reported IC50 is lower than 0.05 µM (strictly) for C[C@H]1[C@@H](CCN2CCN(c3ccc(C(=O)NS(=O)(=O)c4ccc(NCC5CCOCC5)c([N+](=O)[O-])c4)c(Oc4cnc5[nH]ccc5c4)c3)CC2)O[C@@H]2O[C@@]3(C)CC[C@H]4[C@H](C)CC[C@@H]1[C@@]24OO3
### Response TRUE

### Prompt Report whether reported IC50 is lower than 0.05 µM (strictly) for C[C@H]1[C@@H](OCCN2CCN(c3ccc(C(=O)NS(=O)(=O)c4ccc(NCC5CCOCC5)c([N+](=O)[O-])c4)c(Oc4cnc5[nH]ccc5c4)c3)CC2)O[C@@H]2O[C@@]3(C)CC[C@H]4[C@H](C)CC[C@@H]1[C@@]24OO3
### Response TRUE

### Prompt Report whether reported IC50 is lower than 0.05 µM (strictly) for C[C@@H]1CC[C@H]2C(CN3CCN(c4ccc(C(=O)NS(=O)(=O)c5ccc(NCC6CCOCC6)c([N+](=O)[O-])c5)c(Oc5cnc6[nH]ccc6c5)c4)CC3)=C(C(F)(F)F)O[C@@H]3O[C@@]4(C)CC[C@@H]1[C@]32OO4
### Response TRUE

* * *

species on record: Homo sapiens; experiment: Selectivity factor, ratio of IC50 for Bcl-xL (unknown origin) to Bcl2 (unknown origin)
Note to self: use Condition met only for Ratio IC50 readings below 20; a reading exactly at 20 still gets Condition not met.

>>> assigned_class("C[C@@H]1CC[C@H]2[C@@](C)(O)[C@@H](OCCN3CCN(c4ccc(C(=O)NS(=O)(=O)c5ccc(NCC6CCOCC6)c([N+](=O)[O-])c5)c(Oc5cnc6[nH]ccc6c5)c4)CC3)O[C@@H]3O[C@@]4(C)CC[C@@H]1[C@]32OO4")
"Condition met"
>>> assigned_class("C[C@@H]1CC[C@H]2[C@@H](C)C(OCCN3CCN(c4ccc(C(=O)NS(=O)(=O)c5ccc(NCC6CCOCC6)c([N+](=O)[O-])c5)c(Oc5cnc6[nH]ccc6c5)c4)C[C@@H]3CO)O[C@@H]3O[C@@]4(C)CC[C@@H]1[C@]32OO4 (some centres undefined)")
"Condition not met"

### Prompt Report whether reported Ratio IC50 is lower than 20 (strictly) for C[C@H]1[C@@H](CC(=O)N2CCN(c3ccc(C(=O)NS(=O)(=O)c4ccc(NCC5CCOCC5)c([N+](=O)[O-])c4)c(Oc4cnc5[nH]ccc5c4)c3)CC2)O[C@@H]2O[C@@]3(C)CC[C@H]4[C@H](C)CC[C@@H]1[C@@]24O3
### Response Condition not met

* * *

target: UniProt P10415
observation-type: IC50 (nM)
Quick reminder: number only, in nM, skip the unit.

>>> experimental_result("C[C@H]1[C@@H](OCCN2CCN(c3ccc(C(=O)NS(=O)(=O)c4ccc(NCC5CCOCC5)c([N+](=O)[O-])c4)c(Oc4cnc5[nH]ccc5c4)c3)CC2)O[C@@H]2O[C@@]3(C)CC[C@H]4[C@H](C)CC[C@@H]1[C@@]24O3")
2.2

### Prompt # return recorded IC50 for input C[C@H]1[C@@H](CC(=O)N2CCN(c3ccc(C(=O)NS(=O)(=O)c4ccc(NCC5CCOCC5)c([N+](=O)[O-])c4)c(Oc4cnc5[nH]ccc5c4)c3)CC2)O[C@@H]2O[C@@]3(C)CC[C@H]4[C@H](C)CC[C@@H]1[C@@]24OO3
### Response 11.9

* * *

Listed here are compounds together with their documented pIC50.
system: RS4-11; assay: Antiproliferative activity against human RS4:11 cells after 72 hrs by MTS assay; type: functional, cell-based; settings: RS4-11, 72 h
pIC50 (log units): -log10 of the concentration in mol/L.

Previously resolved entries follow.
>>> experimental_result("C[C@H]1[C@@H](OCCN2CCN(c3ccc(C(=O)NS(=O)(=O)c4ccc(NCC5CCOCC5)c([N+](=O)[O-])c4)c(Oc4cnc5[nH]ccc5c4)c3)CC2)O[C@@H]2O[C@@]3(C)CC[C@H]4[C@H](C)CC[C@@H]1[C@@]24O3")
5.36
>>> experimental_result("C[C@H]1[C@@H](OCCN2CCN(c3ccc(C(=O)NS(=O)(=O)c4ccc(NCC5CCOCC5)c([N+](=O)[O-])c4)c(Oc4cnc5[nH]ccc5c4)c3)CC2)O[C@@H]2O[C@@]3(C)CC[C@H]4[C@H](C)CC[C@@H]1[C@@]24OO3")
6.28

### Prompt # return recorded pIC50 for input CC1(C)CCC(CN2CCN(c3ccc(C(=O)NS(=O)(=O)c4ccc(NCC5CCOCC5)c([N+](=O)[O-])c4)c(Oc4cnc5[nH]ccc5c4)c3)CC2)=C(c2ccc(Cl)cc2)C1
### Response 8.22

### Prompt # return recorded pIC50 for input C[C@H]1[C@@H](CCCN2CCN(c3ccc(C(=O)NS(=O)(=O)c4ccc(NCC5CCOCC5)c([N+](=O)[O-])c4)c(Oc4cnc5[nH]ccc5c4)c3)CC2)O[C@@H]2O[C@@]3(C)CC[C@H]4[C@H](C)CC[C@@H]1[C@@]24OO3
### Response 6.05

### Prompt # return recorded pIC50 for input C[C@H]1[C@@H](CCN2CCN(c3ccc(C(=O)NS(=O)(=O)c4ccc(NCC5CCOCC5)c([N+](=O)[O-])c4)c(Oc4cnc5[nH]ccc5c4)c3)CC2)O[C@@H]2O[C@@]3(C)CC[C@H]4[C@H](C)CC[C@@H]1[C@@]24O3
### Response 5.89

### Prompt # return recorded pIC50 for input C[C@@H]1CC[C@H]2C(CN3CCN(c4ccc(C(=O)NS(=O)(=O)c5ccc(NCC6CCOCC6)c([N+](=O)[O-])c5)c(Oc5cnc6[nH]ccc6c5)c4)CC3)=C(C(F)(F)F)O[C@@H]3O[C@@]4(C)CC[C@@H]1[C@]32O4
### Response 5.72
